Numbers sourced from PubChem BioAssay (Tox21).

test: qHTS assay for small molecule disruptors of the mitochondrial membrane potential (AID 720635)
measurementConditions: HepG2 mitochondrial membrane potential, Mito-MPS dye ratio; series mostly up to 83.2 µM
Inconclusive results are not listed. Active and inactive are the calls of the source. Calls follow the shape of the dose curve; as a rule, active = well fitted inhibition curve with a large enough effect in the signal ratio in the repeat runs; inconclusive = weak or mixed curves, or effect the other way; inactive = flat fitted curve, though single readings scatter; the % refers to the signal ratio.
Use one of these outcomes when replying: Yes = active, No = inactive

Below, 5 compounds whose answers are already recorded.
{"columns": ["compound", "class"],
 "data": [
  ["C=C[C@@]1(C)CC(=O)[C@]2(O)[C@@]3(C)[C@@H](O)CCC(C)(C)[C@@H]3[C@H](O)[C@H](OC(C)=O)[C@@]2(C)O1", "Yes"],
  ["FC(F)(F)C(Cl)Br (stereo not drawn)", "No"],
  ["CCCOCCO", "No"],
  ["O=C(O)c1cc(=O)[nH]c(=O)[nH]1", "No"],
  ["CCO[Si](CCCNC(N)=O)(OCC)OCC", "No"]
]}

Query: Call for entry `CC(=O)Oc1c(C)c(C)c2c(c1C)CC[C@@](C)(CCC[C@H](C)CCC[C@H](C)CCCC(C)C)O2` :
Response: No

Query: Call for entry CCCCCCC(C)O (stereo not drawn) :
Response: No

Query: Call for entry `C[C@]12C=CC(=O)C=C1CC[C@H]1[C@@H]3C[C@@H](O)[C@](O)(C(=O)CO)[C@@]3(C)C[C@H](O)[C@@]12F` :
Response: No
